Collected IC50 values appear next to each entry.
Test system: KMS12PE Bcl2 V156D
runDescription: In vitro cytotoxicity CellTiterGlo 72 h, KMS12PE Bcl2 V156D
Type: cell-based
details: Homo sapiens, KMS-12-PE, read-out: C50 nM, KMS12PE Bcl2 V156D
Description: KMS-12-PE (ACC 606) were purchased from the Leibniz-Institute DSMZ (Braunschweig, Germany) and were grown at 37° C. in a humidified atmosphere with 5% CO2 in media recommended by the suppliers. […] BCL2 expression was monitored by immunoblotting using anti-Flag and anti-BCL2 antibodies. […] Cell viability was assessed using CellTiterGlo reagent following treatment for 72 h. […] The C50 values were calculated using nonlinear regression algorithms in XCell software.
reportedMetric: IC50 (nM)

INSERT INTO assay_data (molecule, reportedmetric, measureunit, number) VALUES
  ('Cc1c(N(C(=O)c2cc(-c3cc4c(cc3C(=O)N3Cc5ccccc5C[C@H]3C)CN(C(=O)Cc3ccc(OCCN5CCOCC5)cc3)CC4)n(C)c2C)c2ccc(O)cc2)cc(C#N)n1C [Example 21]', 'IC50', 'nM', 9.77),
  ('Cc1c(N(C(=O)c2cc(-c3cc4c(cc3C(=O)N3Cc5ccccc5C[C@H]3C)CN(C(=O)Cc3ccc(N5CCN6CCOC[C@@H]6C5)cc3F)CC4)n(C)c2C)c2ccc(O)cc2)cc(C#N)n1C [Example 45]', 'IC50', 'nM', 0.96),
  ('Cc1c(C(=O)N(c2ccc(O)cc2)c2cc(C#N)n(C(F)F)c2C)cc(-c2cc3c(cc2C(=O)N2Cc4ccccc4C[C@H]2CN2CCCCC2)CN(C(=O)Cc2ccc(OCCN4CCOCC4)cc2F)CC3)n1C [Example 78]', 'IC50', 'nM', 5.88),
  ('Cc1c(C(=O)N(c2ccc(O)cc2)c2cc(C#N)n(C(F)F)c2C)cc(-c2cc3c(cc2C(=O)N2Cc4ccccc4C[C@H]2CN2CCCCC2)CN(C(=O)Cc2ccc(OCCN4CCOCC4)cc2)CC3)n1C [Example 77]', 'IC50', 'nM', 19.1),
  ('Cc1c(N(C(=O)c2cc(-c3cc4c(cc3C(=O)N3Cc5ccccc5C[C@H]3CN3CCC[C@H](C)C3)CN(C(=O)Cc3ccc(OCCN5CCOCC5)cc3F)CC4)n(C)c2C)c2ccc(O)cc2)cc(C#N)n1C [Example 107]', 'IC50', 'nM', 5.93),
  ('Cc1c(N(C(=O)c2cc(-c3cc4c(cc3C(=O)N3Cc5ccccc5C[C@H]3C)CN(C(=O)Cc3ccc(OCCC5CCOCC5)cc3)CC4)n(C)c2C)c2ccc(O)cc2)cc(C#N)n1C [Example 27]', 'IC50', 'nM', 3.84),
  ('Cc1c(N(C(=O)c2cc(-c3cc4c(cc3C(=O)N3Cc5ccccc5C[C@H]3C)CN(C(=O)Cc3ccc(CCN5CCC(F)(F)CC5)cc3)CC4)n(C)c2C)c2ccc(O)cc2)cc(C#N)n1C [Example 51]', 'IC50', 'nM', 31.9),
  ('Cc1c(N(C(=O)c2cc(-c3cc4c(cc3C(=O)N3Cc5ccccc5C[C@H]3CN3CCCCC3)CN(C(=O)Cc3ccc(OCCN5CCOCC5)cc3F)CC4)n(C)c2C)c2ccc(O)cc2)cc(C#N)n1C [Example 43]', 'IC50', 'nM', 6.63),
  ('Cc1c(N(C(=O)c2cc(-c3cc4c(cc3C(=O)N3Cc5ccccc5C[C@H]3CN3CCCCC3)CN(C(=O)Cc3ccc(OCCC5CCOCC5)cc3)CC4)n(C)c2C)c2ccc(O)cc2)cc(C#N)n1C [Example 66]', 'IC50', 'nM', 7.65);
